# Procedure Text: Acute toxicity (LD50, Litchfield-Wilcoxon test, intraperitoneal)
# Design: species or system I.C.R. Swiss albino mice
# Condition Parameters: mouse, in vivo, ip, mice, deaths noted 48 hours after treatment
Outcome Measure: LD50 at 48 h
Put your answer as a value accompanied by its unit after it.

| Compound | Value Measured |
| --- | --- |
| CN1CCC2(C)CC1Cc1sc3ccccc3c12 (racemic) [Product I] | 90.8 mg/kg |

Next:
IN: Name the reported LD50 at 48 h value associated with the compound CC1=CCN(C)C(Cc2cc3ccccc3s2)C1 (centres unmarked) [Product II]
OUT: 916 mg/kg
